assay_target: Serine/threonine-protein kinase Chk2 (Homo sapiens)
assay_overview: Inhibition of CHK2 (unknown origin) at 1 uM
Calls of active or inactive are those of the source. The calls are words filed in the database; no cut-off is given here.
Hi! Could you answer with just one of these? active, inactive

Record excerpt, results attached:
molecule	assay_target	label_class
O=C1Nc2ccccc2/C1=C1/Nc2ccccc2/C1=N\OCC(O)CO (centres undefined)	Serine/threonine-protein kinase Chk2 (Homo sapiens)	active
CN1CCN(CCO/N=C2/C(=C3/C(=O)Nc4ccccc43)Nc3ccccc32)CC1	Serine/threonine-protein kinase Chk2 (Homo sapiens)	inactive
Cc1ccc2c(c1)NC(=O)/C2=C1\Nc2ccccc2\C1=N/O	Serine/threonine-protein kinase Chk2 (Homo sapiens)	active

Turning now to a further record.
Q: So what was the verdict on O=C1Nc2cc(Br)ccc2/C1=C1/Nc2ccccc2/C1=N\O in this test?
Result: active
